Tested on: Saccharomyces cerevisiae
Experiment: protein stability index of tFT-peptide fusion (C-terminal peptide) (PSI (0-1 scale)); higher = more stable (slower turnover)
Details: genetic background: wild type; temperature: 30 C
VALUE_TYPE: protein stability index
In your answer, state the number alone without any accompanying words.

Look over these answered cases.
CHAIN: THKKPGFENYSI [IRC13 C-terminal 12 aa]
protein stability index: 0.704
--
CHAIN: REKAEAEAEKKK [RPL13A C-terminal 12 aa]
protein stability index: 0.68
--
CHAIN: PEDCKDDKYFVN [LCB2 C-terminal 12 aa]
protein stability index: 0.685
--
CHAIN: SSLDEVLAKDKD [MIN8 C-terminal 12 aa]
protein stability index: 0.679

Requested read-out: protein stability index. Entry: IPELHNLKPTCV [YBR238C C-terminal 12 aa]
0.687

* * *

Quick reference: protein stability index of the listed items.
System: Saccharomyces cerevisiae
Assay: protein stability index of tFT-peptide fusion (C-terminal peptide) (PSI (0-1 scale)); higher = more stable (slower turnover)
Settings: genetic background: wild type; temperature: 37 C

Look over these answered cases.
CHAIN: YWRNYLVLVCKF
protein stability index: 0.613
--
CHAIN: LMIVSVRLLFFL
protein stability index: 0.282
--
CHAIN: GYTVYARRLIMC
protein stability index: 0.0893
--
CHAIN: SWCLLVWIGGVF
protein stability index: 0.432

# query: protein stability index | item VGASLVVIAIGV | system: Saccharomyces cerevisiae
0.518

Note, next up: RSRNSEYILVYN
0.66

* * *

Tested on: Saccharomyces cerevisiae
Assay: protein stability index of tFT-peptide fusion (C-terminal peptide) (PSI (0-1 scale)); higher = more stable (slower turnover)
Details: genetic background: wild type; temperature: 30 C
Decide using protein stability index: a value greater than or equal to 0.7 is MET, a smaller one is NOT MET.

Look over these answered cases.
CHAIN: PLPRPRHHEPNS
DISCRETE_LABEL: MET
--
CHAIN: PLPPTFPSPLPP
DISCRETE_LABEL: NOT MET
--
CHAIN: TVRLAPCPLSDT
DISCRETE_LABEL: MET
--
CHAIN: IFKAIDQTYTDK
DISCRETE_LABEL: MET
--
CHAIN: GWCRSYVAFGVY
DISCRETE_LABEL: NOT MET

Reported protein stability index at or above 0.7? GPCRPWIVVYAG
NOT MET

Note, next up: APSSLLTPPACI
MET

* * *

System: Saccharomyces cerevisiae
Assay: protein stability index of tFT-peptide fusion (C-terminal peptide) (PSI (0-1 scale)); higher = more stable (slower turnover)
Conditions: genetic background: wild type; temperature: 30 C
VALUE_TYPE: protein stability index

CHAIN: VSLVGGLGFGVG
protein stability index: 0.553
--
CHAIN: PKPPPSSGRCPA
protein stability index: 0.633
--
CHAIN: EHLYIYGKDKWK
protein stability index: 0.602

Requested read-out: protein stability index. Entry: SCFVWAFRCWGF
0.621

Note, next up: FWVESGVFFFRP
0.667

Note, next up: MRWVISEDPGFR
0.695

Note, next up: PPLPPSPLPLPP
0.664

Note, next up: PGSIGVVIAVRS
0.464

Note, next up: PSYSPPPHPVHR
0.686

Note, next up: SRFEPLSCEQCS
0.66

Note, next up: KGRSKHIKGKRR
0.743

Note, next up: NQRCLRGKIVRC
0.633

Note, next up: RGFGPTPRSSGG
0.707

Note, next up: GIGSHSSSNVNP
0.791

Note, next up: LTILRSPLPSLS
0.701

Note, next up: EGVCEIEMRGSR
0.788

Note, next up: SSPLPPAPPTAS
0.587

Note, next up: GSGGSGLLLVEW
0.763

The measurements presented in this section are drawn from the supplement of paper PMC10724198.
